Target: BRAF G466V (Homo sapiens, UniProt P15056, G466V)
Construct: expressed in transfected cells
Sequence (P15056 whole entry G466V): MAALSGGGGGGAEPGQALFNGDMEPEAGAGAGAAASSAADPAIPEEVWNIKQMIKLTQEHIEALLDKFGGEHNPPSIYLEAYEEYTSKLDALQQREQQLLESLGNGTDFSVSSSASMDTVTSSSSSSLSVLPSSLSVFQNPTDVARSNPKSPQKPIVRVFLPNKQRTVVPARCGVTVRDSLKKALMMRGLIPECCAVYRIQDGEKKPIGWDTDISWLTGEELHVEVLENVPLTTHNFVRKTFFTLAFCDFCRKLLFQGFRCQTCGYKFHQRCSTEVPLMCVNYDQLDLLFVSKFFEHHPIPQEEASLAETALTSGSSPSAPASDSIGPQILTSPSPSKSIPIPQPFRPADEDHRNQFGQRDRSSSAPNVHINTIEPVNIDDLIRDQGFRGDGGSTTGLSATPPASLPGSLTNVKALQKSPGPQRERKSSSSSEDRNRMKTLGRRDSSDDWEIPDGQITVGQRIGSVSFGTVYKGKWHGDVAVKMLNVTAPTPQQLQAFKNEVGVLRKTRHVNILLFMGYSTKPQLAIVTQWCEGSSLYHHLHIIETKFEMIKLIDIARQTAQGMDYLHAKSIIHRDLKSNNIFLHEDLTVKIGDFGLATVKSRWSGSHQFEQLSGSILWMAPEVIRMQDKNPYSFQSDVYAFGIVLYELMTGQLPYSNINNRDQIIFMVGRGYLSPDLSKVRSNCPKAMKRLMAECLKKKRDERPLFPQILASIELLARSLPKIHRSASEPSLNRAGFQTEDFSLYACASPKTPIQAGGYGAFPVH
Test: Cellular assay of target protein degradation, T-Rex 293 cells stably transfected with HA-BRAF G466V (HA immunofluorescence, high content imaging)
Type: cell-based
Settings: maximum degradation observed, T-Rex 293 HA-BRAF G466V
Readout name: Dmax

| Compound | Readout name | Value reported |
| --- | --- | --- |
| O=C1CCC(N2Cc3cc(C4CCN(C[C@@H]5[C@H]6CN(c7ccc(-c8cnc9[nH]cc(C(=O)c%10c(F)ccc(NS(=O)(=O)N%11CC[C@@H](F)C%11)c%10F)c9c8)cc7)C[C@@H]56)CC4)ccc3C2=O)C(=O)N1 (some centres unmarked) | Dmax | > 70% |

Now examine the next entry.
Record lookup: for BRAF G466V (Homo sapiens, UniProt P15056, G466V), what Dmax belongs to O=C1CCC(N2Cc3cc(OCCN4CC5(C4)CN(c4ccc(-c6cnc7[nH]cc(C(=O)c8c(F)ccc(NS(=O)(=O)N9CC[C@@H](F)C9)c8F)c7c6)cc4)C5)ccc3C2=O)C(=O)N1 (some centres unmarked) ?
35 to 70%
